Origin of measurements: patent US20160137639A1

Biological target: human RORγ (Homo sapiens)
Construct: human, NM_005060.3 and from Ser253 to Lys518; expressed in transfected cells; host or cells: CHO cells (transient co-transfection with pG5-Luc reporter)
Sequence (P51449 253-518): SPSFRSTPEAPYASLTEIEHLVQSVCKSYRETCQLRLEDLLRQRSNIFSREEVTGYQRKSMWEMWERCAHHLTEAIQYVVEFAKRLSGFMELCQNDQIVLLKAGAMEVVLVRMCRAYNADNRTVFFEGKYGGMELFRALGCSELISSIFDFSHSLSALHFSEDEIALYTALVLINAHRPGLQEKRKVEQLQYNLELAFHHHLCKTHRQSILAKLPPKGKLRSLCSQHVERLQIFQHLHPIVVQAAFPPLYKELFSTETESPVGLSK
Assay: Luciferase reporter gene assay of inhibitory effect against RORγ transcriptional activity (GAL4-hRORγ plasmid in CHO cells)
Format: cell-based
Conditions: read-out: LUC EC50 hRORg
assay readout: EC50

Q: Give recorded EC50. Cc1ccc(NC(=O)C[C@H](CCC(=O)O)c2onc([C@H]3C[C@@H](CC(C)(C)C)C3)c2C2CC2)c(Cl)c1
Ans: < 3 µM

Q: State, in one line, measured EC50 of Cc1ccc(NC(=O)[C@@H]2CC(C)(O)C[C@H]2c2nnc([C@H]3C[C@@H](CC(C)C)C3)n2C2CC2)c(C)c1 (single isomer, unassigned) [Example F-564]
Ans: < 3 µM

Q: Identify the reported EC50 for the following entry. CC(C)(C)C[C@H]1C[C@@H](c2onc([C@@H](CCC(=O)O)CC(=O)NC3CCC3)c2C2CC2)C1
Ans: > 3 µM

Q: Find the measured EC50 of Cc1ccc(NC(=O)C[C@H](CCC(=O)O)c2noc3c2C(C)CCC3CCC(C)C)c(Cl)c1 (single isomer, unassigned) [Example F-690] and report it.
Ans: > 3 µM

Q: Find the measured EC50 of Cc1ccc(NC(=O)[C@@H](CC(=O)O)Cc2noc([C@H]3C[C@@H](CC(C)(C)C)C3)c2C2CC2)c(Cl)c1 and report it.
Ans: < 3 µM

Q: Let me know recorded EC50 for CCC(CC)C[C@H]1C[C@@H](c2nnc(CCC(=O)Nc3ccc(C)cc3C)n2C2CC2)C1 , thanks.
Ans: < 3 µM

---

Biological target: human RORγ (Homo sapiens, UniProt P51449)
Construct: human, NM_005060.3 and from Ser253 to Lys518; expressed in transfected cells; host or cells: CHO cells (transient co-transfection with pG5-Luc reporter)
Assay: Luciferase reporter gene assay of inhibitory effect against RORγ transcriptional activity (GAL4-hRORγ plasmid in CHO cells)
Format: cell-based
Settings: read-out: LUC EC50 (μM) hRORg
assay readout: EC50

Q: Note EC50 for the compound shown: Cc1ccc(NC(=O)C[C@H](CCC(=O)O)c2noc(-c3csc(CC(C)C)n3)c2C2CC2)c(Cl)c1 [Example E-36]
Ans: > 3 µM

Q: Determine its reported EC50: CC(C)CCc1nnc(CCC(=O)NCc2ccc(C(F)(F)F)cc2)n1C1CC1 [Example F-129]
Ans: > 3 µM

Q: Answer with reported EC50 of CCn1c(CC(C)C(=O)Nc2cccc3ccccc23)nnc1C1Cc2ccccc2C1 (racemic) [Example F-32]
Ans: < 3 µM

Q: Please indicate EC50 recorded for COc1cc(C)c(Cl)cc1CNC(=O)CCc1nnc(CCC(C)C)n1C1CC1 [Example F-204]
Ans: > 3 µM

---

Record form. Attribute: EC50. Fill in for each entry.
Target: mouse RORγ (Mus musculus, UniProt P51450)
Construct: mouse, NM_011281.2 and from Ile251 to Lys516; expressed in transfected cells; host or cells: CHO cells (transient co-transfection with pG5-Luc reporter)
Sequence (P51450 251-516): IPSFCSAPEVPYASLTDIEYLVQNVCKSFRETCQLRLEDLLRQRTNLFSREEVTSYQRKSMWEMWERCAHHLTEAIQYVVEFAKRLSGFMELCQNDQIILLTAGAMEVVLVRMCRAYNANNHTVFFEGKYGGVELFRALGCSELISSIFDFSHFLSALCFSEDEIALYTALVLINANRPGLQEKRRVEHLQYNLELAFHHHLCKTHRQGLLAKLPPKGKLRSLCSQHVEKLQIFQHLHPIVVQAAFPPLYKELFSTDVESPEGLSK
Test: Luciferase reporter gene assay of inhibitory effect against RORγ transcriptional activity (GAL4-mRORγ plasmid in CHO cells)
Format: cell-based
Conditions: read-out: LUC EC50 (μM) mRORg

Q: State its EC50: Cc1ccc(NC(=O)CC(CN(C)C)c2nnc(CCCC(C)C)n2C2CC2)c(C)c1 (racemic)
Ans: < 3 µM

Q: Tell me measured EC50 for Cc1ccc(NC(=O)[C@H]2CCC(=O)N(C)[C@@H]2c2nnc(CCCC(C)(C)C)n2C2CC2)c(C)c1 please.
Ans: < 3 µM

Q: Read the entry COc1cc(C)ccc1CNC(=O)[C@H]1CN(C(C)=O)C[C@@H]1c1nnc(CCCC(C)C)n1C1CC1 (racemic) and write its reported EC50.
Ans: < 3 µM

Q: Give the reported EC50 for this compound. Cc1c(Cl)cccc1NC(=O)CCc1nnc(CCN2CCCCC2)n1C1CC1
Ans: > 3 µM

Q: State its EC50: Cc1cc(C(N)=O)ccc1NC(=O)CCc1nnc(CCC(C)C)n1C1CC1
Ans: > 3 µM

Q: Supply EC50 value. Item: Cc1c(Cl)cccc1NC(=O)CCc1nnc(CC(C)C)n1C1CC1
Ans: > 3 µM

Q: Let me know recorded EC50 for COc1cc(C)c(C)cc1CNC(=O)CCc1nnc(CCC(C)C)n1C1CC1 , thanks.
Ans: > 3 µM

Q: Fill in reported EC50 for this entry: CC1(C(F)(F)c2cc(-c3onc([C@@H](CCC(=O)O)CC(=O)Nc4ccc(Cl)cc4F)c3C3CC3)no2)CC1
Ans: < 3 µM

---

Target: mouse RORγ (Mus musculus)
Construct: mouse, NM_011281.2 and from Ile251 to Lys516; expressed in transfected cells; host or cells: CHO cells (transient co-transfection with pG5-Luc reporter)
Experiment: Luciferase reporter gene assay of inhibitory effect against RORγ transcriptional activity (GAL4-mRORγ plasmid in CHO cells)
Format: cell-based
Conditions: read-out: LUC EC50 (μM) mRORg
For each entry below, report its EC50 value.

Q: Give a short answer stating reported EC50 for C=CCOc1ccc(-c2nnc(CCC(=O)Nc3ccc(C)cc3C)n2C2CC2)cc1 .
Ans: > 3 µM

Q: Give the value of EC50 reported for the following: CCn1c(CCC(=O)Nc2cc(Cl)cc(Cl)c2)nnc1C1Cc2ccccc2C1
Ans: > 3 µM

Q: Give the measured EC50 for CCn1c(C2Cc3ccccc3C2)nnc1[C@H](C)CC(=O)Nc1cccc2ccccc12
Ans: < 3 µM

Q: Quote EC50 reported for CNC(=O)N1C[C@H](C(=O)Nc2ccc(C)cc2C)[C@@H](c2nnc(CCCC(C)(C)C)n2C2CC2)C1 (racemic) please.
Ans: < 3 µM

Q: Quick one: give measured EC50 for Cc1c(Cl)cccc1NC(=O)CCc1nnc(CCNC(C)C)n1C1CC1
Ans: > 3 µM

Q: Determine its reported EC50: Cc1ccc(NC(=O)C[C@H](CCC(=O)O)c2noc(-c3cc(CC(C)C)no3)c2C2CC2)c(Cl)c1
Ans: < 3 µM

Q: Report EC50 for CC(C)CCc1nnc(CCC(=O)NCc2ccccc2Cl)n1C1CC1
Ans: > 3 µM

Q: Annotate the compound CC(=O)N1C[C@@H](C(=O)Nc2ccc(C)cc2C)[C@H](c2nnc(-c3cc(CC(C)C)on3)n2C2CC2)C1 with its measured EC50.
Ans: > 3 µM

Q: Give me measured EC50, please, for this compound: CCn1c(CCCC(C)(C)C)nnc1[C@H]1CN(C(C)=O)C[C@@H]1C(=O)Nc1ccc(C)cc1C (racemic)
Ans: < 3 µM

Q: Give the reported value of EC50 for this record: Cc1ccc(NC(=O)[C@H]2CCCN(C)[C@@H]2c2nnc(CCCC(C)(C)C)n2C2CC2)c(C)c1
Ans: < 3 µM

Q: Look up and state reported EC50 for Cc1ccc(CNC(=O)CCc2nnc(CCC(C)C)n2C2CC2)c(O)c1
Ans: > 3 µM

Q: Using known records, supply EC50 for Cc1c(Cl)cccc1NC(=O)CC(CCO)c1nnc(CCC(C)C)n1C1CC1 (racemic)
Ans: < 3 µM

Q: # return recorded EC50 for entry Cc1c(Cl)cccc1NC(=O)CCc1nnc(C(C)CC(C)C)n1C1CC1 (racemic)
Ans: < 3 µM

Q: For the compound Cc1cc(C)cc(NC(=O)CCc2nnc(CCC(C)C)n2C2CC2)c1 , give its reported EC50.
Ans: > 3 µM

Q: Return value of EC50 for input C#CCC(CC(=O)Nc1ccc(C)cc1C)c1nnc(CCCC(C)(C)C)n1C1CC1 (racemic) , no commentary.
Ans: < 3 µM

Q: Report EC50, nothing else, for this compound: CC(=O)N1C[C@H](C(=O)Nc2ccc(C)cc2C)[C@@H](c2nnc([C@H]3C[C@H](OC(C)C)C3)n2C2CC2)C1 [Example F-334]
Ans: < 3 µM

---

Target: mouse RORγ (Mus musculus, UniProt P51450)
Construct: mouse, NM_011281.2 and from Ile251 to Lys516; expressed in transfected cells; host or cells: CHO cells (transient co-transfection with pG5-Luc reporter)
Assay: Luciferase reporter gene assay of inhibitory effect against RORγ transcriptional activity (GAL4-mRORγ plasmid in CHO cells)
Type: cell-based
Details: read-out: LUC EC50 mRORg
assay readout: EC50

Q: Please report EC50 for the following molecule: CNC(=O)C(C)(C)C[C@H]1C[C@@H](c2onc([C@@H](CCC(=O)O)CC(=O)Nc3ccc(C)cc3Cl)c2C2CC2)C1
Ans: < 3 µM

Q: // Input: Cc1ccc(NC(=O)C[C@H](CCC(=O)O)n2nnc([C@H]3C[C@@H](CC(C)(C)C)C3)c2C2CC2)c(Cl)c1 . Output its EC50 only.
Ans: < 3 µM

Q: For the molecule Cc1ccc(NC(=O)CC(CO)c2nnc(CCCC(C)(C)C)n2C2CC2)c(C)c1 (racemic) , give its reported EC50.
Ans: < 3 µM

Q: Supply reported EC50 belonging to this molecule: Cc1ccc(NC(=O)C[C@H](CCCO)c2noc(-c3cn(CCC(C)(C)C)nc3C(F)(F)F)c2C2CC2)c(F)c1
Ans: > 3 µM

Q: Indicate the recorded EC50 value for this molecule: Cc1ccc(NC(=O)[C@H]2CN(C(=O)N3CCN(C)CC3)C[C@@H]2c2nnc([C@H]3C[C@@H](CC(C)C)C3)n2C2CC2)c(C)c1
Ans: < 3 µM

Q: // fetch EC50 given entry Cc1ccc(NC(=O)C[C@@H](c2nnc([C@H]3C[C@@H](CC(C)C)C3)n2C2CC2)N(C)C(C)C)c(C)c1
Ans: < 3 µM
